Source: paper PMC6598531

# target.system: LdcCA (Leishmania infantum, UniProt A4HSV2)
# Sequence (A4HSV2 1-306): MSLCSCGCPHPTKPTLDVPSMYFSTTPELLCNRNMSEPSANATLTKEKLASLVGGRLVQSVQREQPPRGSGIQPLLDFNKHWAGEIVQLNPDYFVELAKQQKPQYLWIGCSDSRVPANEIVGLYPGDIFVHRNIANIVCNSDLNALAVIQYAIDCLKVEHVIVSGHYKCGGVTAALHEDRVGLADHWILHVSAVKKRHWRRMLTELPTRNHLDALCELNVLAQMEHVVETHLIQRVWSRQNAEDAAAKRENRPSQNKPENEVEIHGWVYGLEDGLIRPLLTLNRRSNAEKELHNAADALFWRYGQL
# test.summary: biochemical
reported.endpoint: pKi
Here pKi is given on a logarithmic scale as minus log10 of the concentration in mol/L.

Enquiry: Need pKi of NS(=O)(=O)c1cc([N+](=O)[O-])c(OC(=O)c2ccccc2)c([N+](=O)[O-])c1 [Compound 7] , thanks.
Return: 5.33

---

# target.system: LdcCA (Leishmania infantum, UniProt A4HSV2)
# test.summary: biochemical
Assignment: determine reported SI (KI1/KI2) CA I/LdcCA for the given compounds.
// return just the number, without any unit appended

Enquiry: Please tell me: SI (KI1/KI2) CA I/LdcCA of NS(=O)(=O)c1cc(NC(=O)N[C@@H]2C(O)O[C@@H](CO)[C@H](O)[C@H]2O)c(O)c([N+](=O)[O-])c1 (some centres unmarked) , system LdcCA (Leishmania infantum, UniProt A4HSV2)?
Return: 1.7

Enquiry: Please tell me: SI (KI1/KI2) CA I/LdcCA of Cc1cc(NC(=O)Nc2cc(S(N)(=O)=O)cc([N+](=O)[O-])c2O)ccc1F , system LdcCA (Leishmania infantum, UniProt A4HSV2)?
Return: 2.6

Enquiry: Please tell me: SI (KI1/KI2) CA I/LdcCA of NS(=O)(=O)c1cc(NC(=O)c2ccc(F)cc2)c(OC(=O)c2ccc(F)cc2)c([N+](=O)[O-])c1 , system LdcCA (Leishmania infantum, UniProt A4HSV2)?
Return: 0.3

Enquiry: Please tell me: SI (KI1/KI2) CA I/LdcCA of NS(=O)(=O)c1cc(NC(=O)Nc2c(F)c(F)c(F)c(F)c2F)c(O)c([N+](=O)[O-])c1 , system LdcCA (Leishmania infantum, UniProt A4HSV2)?
Return: 0.5

Enquiry: Please tell me: SI (KI1/KI2) CA I/LdcCA of Nc1cc(S(N)(=O)=O)cc([N+](=O)[O-])c1O , system LdcCA (Leishmania infantum, UniProt A4HSV2)?
Return: 13.4

Enquiry: Please tell me: SI (KI1/KI2) CA I/LdcCA of NS(=O)(=O)c1cc(NC(=O)Nc2ccc(F)cc2)c(O)c([N+](=O)[O-])c1 , system LdcCA (Leishmania infantum, UniProt A4HSV2)?
Return: 5.5

Enquiry: Please tell me: SI (KI1/KI2) CA I/LdcCA of NS(=O)(=O)c1ccc(O)c([N+](=O)[O-])c1 , system LdcCA (Leishmania infantum, UniProt A4HSV2)?
Return: 4.3

Enquiry: Please tell me: SI (KI1/KI2) CA I/LdcCA of COc1cccc(NC(=O)Nc2cc(S(N)(=O)=O)cc([N+](=O)[O-])c2O)c1 , system LdcCA (Leishmania infantum, UniProt A4HSV2)?
Return: 8.6

Enquiry: Please tell me: SI (KI1/KI2) CA I/LdcCA of NS(=O)(=O)c1cc(NC(=O)Nc2ccc(C(F)(F)F)cc2)c(O)c([N+](=O)[O-])c1 , system LdcCA (Leishmania infantum, UniProt A4HSV2)?
Return: 2.2

Enquiry: Please tell me: SI (KI1/KI2) CA I/LdcCA of NS(=O)(=O)c1cc([N+](=O)[O-])c(OC(=O)c2ccccc2)c([N+](=O)[O-])c1 , system LdcCA (Leishmania infantum, UniProt A4HSV2)?
Return: 1.0

Enquiry: Please tell me: SI (KI1/KI2) CA I/LdcCA of NS(=O)(=O)c1cc(NC(=O)Nc2cc(C(F)(F)F)cc(C(F)(F)F)c2)c(O)c([N+](=O)[O-])c1 , system LdcCA (Leishmania infantum, UniProt A4HSV2)?
Return: 1.6

Enquiry: Please tell me: SI (KI1/KI2) CA I/LdcCA of NS(=O)(=O)c1cc(O)c(O)c([N+](=O)[O-])c1 , system LdcCA (Leishmania infantum, UniProt A4HSV2)?
Return: 15.9

Enquiry: Please tell me: SI (KI1/KI2) CA I/LdcCA of NS(=O)(=O)c1cc(NC(=O)NCCc2ccccc2)c(O)c([N+](=O)[O-])c1 , system LdcCA (Leishmania infantum, UniProt A4HSV2)?
Return: 10.8

Enquiry: Please tell me: SI (KI1/KI2) CA I/LdcCA of NS(=O)(=O)c1cc(NC(=O)c2ccccc2)c(OC(=O)c2ccccc2)c([N+](=O)[O-])c1 , system LdcCA (Leishmania infantum, UniProt A4HSV2)?
Return: 0.4

Enquiry: Please tell me: SI (KI1/KI2) CA I/LdcCA of CC(=O)OC[C@@H]1O[C@@H](OC(C)=O)[C@@H](NC(=O)Nc2cc(S(N)(=O)=O)cc([N+](=O)[O-])c2O)[C@H](OC(C)=O)[C@H]1OC(C)=O , system LdcCA (Leishmania infantum, UniProt A4HSV2)?
Return: 1.6

Enquiry: Please tell me: SI (KI1/KI2) CA I/LdcCA of Cc1cc(C)cc(NC(=O)Nc2cc(S(N)(=O)=O)cc([N+](=O)[O-])c2O)c1 , system LdcCA (Leishmania infantum, UniProt A4HSV2)?
Return: 4.5
